Each entry below carries its reported polymerase ribozyme fitness (log ratio).
B1: TPR 5TU (parent)
chain: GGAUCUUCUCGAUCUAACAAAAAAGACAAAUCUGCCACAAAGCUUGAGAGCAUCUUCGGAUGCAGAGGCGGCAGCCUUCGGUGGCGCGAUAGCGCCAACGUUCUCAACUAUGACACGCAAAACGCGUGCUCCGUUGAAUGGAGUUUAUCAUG

# Variants of: B1
# MEASUREMENT_DESCRIPTION: polymerase ribozyme fitness, log enrichment relative to wild type (log ratio); higher = more active; in vitro selection for triplet polymerase activity
This sample holds only a part of the variants without activity.
PROPERTY_LABEL: polymerase ribozyme fitness (log ratio)

# ALTERATION, INEQUALITY_OPERATOR, REPORTED_VALUE
rows = [
    ("A28C A52U C87U", "≤", -4.2),
    ("A16G A49U C131U", "=", -1.5),
    ("A12U G71A A107C", "≤", -4.2),
    ("U56A A60U C93U G141U", "=", -3.71),
    ("U78C", "=", -0.318),
    ("G25A C38U C85G", "=", -4.07),
    ("C10A U13C A30C G83A G88A A98U C125A A147G", "≤", -4.2),
    ("A47C U134G G136A", "=", -0.632),
    ("G50A U78A G83A G100A A107C", "≤", -4.2),
    ("A19C G62C G84A A89G G117A", "=", -2.57),
    ("A21U G71C C79G A107U A142C", "≤", -4.2),
    ("U6G G58C C131A", "=", -2.15),
    ("U7C G46A G65U C76A U77G C79A G94A C96A U135A U144G G152U", "≤", -4.2),
    ("A52C G67C G83U C108U G124U", "≤", -4.2),
    ("U4C C36U A49G A66U G83A C85G G88A C114U U146G", "≤", -4.2),
    ("C35A A47C G86U", "≤", -4.2),
    ("C27U G34A A66G A113C A121C", "≤", -4.2),
    ("U13C C27A A49C U56A A97U", "≤", -4.2),
    ("C43A U53A C57A C95U", "≤", -4.2),
    ("A73G U148A", "=", -3.81),
]
